Each recorded value in this set is attributed to patent US20250051277A1.

Recorded Mouse Plasma Compound 001 (%) by entry
# condition.notes: 120 min, 5 μM
Output spec: scalar in %, unitless text.

compound	Mouse Plasma Compound 001 (%)
COc1ccc([C@@]23CCC(OC(=O)c4ccc(C(C)C)cc4)=C[C@@H]2N(C)CC3)cc1OC [Compound 371]	26.59
COc1ccc([C@@]23CCC(OC(=O)c4cccc(C(C)(C)C)c4)=C[C@@H]2N(C)CC3)cc1OC [Compound 375]	42.28
COc1ccc([C@@]23CCC(OC(=O)c4cccc(N(C)C)c4)=C[C@@H]2N(C)CC3)cc1OC [Compound 307]	79.9

Let's switch to this compound now.
Q: Bench note: what Mouse Plasma Compound 001 (%) did C/C=C(\C)C(=O)OC1=C[C@@H]2N(C)CC[C@]2(c2ccc(OC)c(OC)c2)CC1 [Compound 313] show?
A: 35.2
